Where these numbers come from: patent US12281162

Target: T1, human G-protein-coupled receptor family C group 5 member D (GPRC5D) (human, UniProt Q9NZD1 1-345)
T1 construct: whole, on cells; also called human GPRC5D protein
T1 sequence (Q9NZD1 whole entry): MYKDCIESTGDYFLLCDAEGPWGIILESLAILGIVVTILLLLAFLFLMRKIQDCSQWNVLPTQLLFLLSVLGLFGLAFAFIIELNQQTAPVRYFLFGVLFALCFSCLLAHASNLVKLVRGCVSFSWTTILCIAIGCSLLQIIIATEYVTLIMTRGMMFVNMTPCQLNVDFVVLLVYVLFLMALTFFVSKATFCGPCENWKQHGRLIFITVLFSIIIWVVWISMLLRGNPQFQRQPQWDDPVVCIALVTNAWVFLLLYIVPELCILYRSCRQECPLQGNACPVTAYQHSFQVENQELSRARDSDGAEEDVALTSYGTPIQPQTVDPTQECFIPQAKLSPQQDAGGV
Assay: FACS, CHO-K1/human GPRC5D, chimeric antibody
Property: Bottom; scope: individual binders
Respond using a number only.

Worked cases, Bottom given:
29B2C10 (chimeric) (antibody, V domains shown) VH: EVQLQQSGPELVKPGASMKLSCKASGYSFTGYTMHWVKQSHGENLEWIGLINPYNGGTNYNQKFKGKATLTVDKSSSTAYMELLSLTSEDSAVYYCSRWGLRRAMDYWGQGTSVTVSS VL: DIVMTQSQKFMSTSVGDRVSVTCKASQNVGSNVAWYQQKPGQSPKALIYSASYRYSGVPDRFTGNGSGTDFTLTISNVQSEDLAEYFCQQYYNSPWTFGGGTKLEIK :: 4330
37B9C4-XI (antibody, V domains shown, also called 37B9C4 (chimeric); 37-XI) VH: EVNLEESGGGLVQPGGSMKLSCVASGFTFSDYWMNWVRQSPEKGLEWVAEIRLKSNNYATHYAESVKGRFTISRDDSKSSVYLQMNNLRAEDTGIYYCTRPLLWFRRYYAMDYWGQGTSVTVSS VL: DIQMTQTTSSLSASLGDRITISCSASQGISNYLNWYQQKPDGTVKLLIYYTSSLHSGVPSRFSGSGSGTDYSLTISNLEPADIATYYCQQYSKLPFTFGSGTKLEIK :: 2080
38A10E9A11 (chimeric) (antibody, V domains shown, also called 38A9E10A11) VH: QVQLQQSGAELARPGASVKMSCKASGYTFTTYTMHWVKQRPGQGLEWIGYINPSSGYTNYNQKFKDKATLTAGKSSSTAYMQLSSLTSEDSAVYYCASLRSRGYFDYWGRGTTLTVSS VL: DIVMTQSQKFLSTSVGDRVSITCKASQNVGTAVAWYQQKPGQSPKLLIYSASNRYTGVPDRFTGSGSGTDFTLTISNMQSEDLAGYFCQQYSSYPYTFGGGTKLEIK :: 3020
21C3C11B3 (chimeric) (antibody, V domains shown) VH: QVQLQQSGAELVRPGTSVKVSCKASGYAFINYLIEWIKQRPGQGLEWIGMINPGSGGTNYNEKFKDKATLTADKSSSTAYMQLSSLTSDDSAVYFCARNWDVWGQGTTLTVSS VL: DVVMTQSPLSLPVSLGDQASVSCRSSQSLVHSTGNTYLHWYLQKPGQSPKLLIYKVSNRFSGVPDRFSGSGSGTDFTLKISRVEAEDLGVYFCSQSTHVPWTFGGGTKLEIK :: 5770
6G10D9-XI (antibody, V domains shown, also called 6G10D9 (chimeric); 6G1009-X1) VH: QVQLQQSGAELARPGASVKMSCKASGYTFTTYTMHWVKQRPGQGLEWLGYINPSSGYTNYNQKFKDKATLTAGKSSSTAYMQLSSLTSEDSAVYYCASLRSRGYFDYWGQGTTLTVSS VL: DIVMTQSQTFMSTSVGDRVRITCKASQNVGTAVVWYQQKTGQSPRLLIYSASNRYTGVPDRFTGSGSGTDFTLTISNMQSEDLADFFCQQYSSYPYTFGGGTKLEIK :: 6890
40A5B2 (chimeric) (antibody, V domains shown) VH: EVQLQQSGPELVKPGASVKMSCKASGYTFTRNIMHWVKQKPGQGLEWIGYINPYNAGSKYNEKFKGKATLTSDISSSTAYMELSSLTSEDSAVYYCAREEVYYRYGAWFAYWGHGTLVTVSA VL: DIVLTQSPASLAVSLGQRATISCRASQSVSTSSYSYMHWYQQKPGQPPKLLIKYASNLESGVPARFSGSGSGTDFTLNIHPVEEEDTATYYCQHSWEIPRTFGGGTKLEIK :: 1490
58F9G10-XI (antibody, V domains shown, also called 58F9G10 (chimeric); 58-XI) VH: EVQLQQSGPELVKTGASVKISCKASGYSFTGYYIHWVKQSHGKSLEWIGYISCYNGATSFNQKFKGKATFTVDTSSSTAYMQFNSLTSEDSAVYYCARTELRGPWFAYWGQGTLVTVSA VL: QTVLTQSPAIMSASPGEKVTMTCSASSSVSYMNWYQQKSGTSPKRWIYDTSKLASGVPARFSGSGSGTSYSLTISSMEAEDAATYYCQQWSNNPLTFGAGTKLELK :: -522

Then there is this binder:
Request: Quick one: Bottom for 34-XI (antibody, V domains shown, also called 34D3H1 (chimeric)) VH: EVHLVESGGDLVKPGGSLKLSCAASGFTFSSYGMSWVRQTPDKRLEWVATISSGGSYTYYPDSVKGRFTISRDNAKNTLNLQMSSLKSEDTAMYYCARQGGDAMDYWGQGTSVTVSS VL: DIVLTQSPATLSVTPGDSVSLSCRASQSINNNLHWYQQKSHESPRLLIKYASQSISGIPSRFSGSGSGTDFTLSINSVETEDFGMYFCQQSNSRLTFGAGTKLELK ?
Response: 3450
